subject_of_test: T1, integrin αvβ8 (human, UniProt P06756)
T1 chain 1: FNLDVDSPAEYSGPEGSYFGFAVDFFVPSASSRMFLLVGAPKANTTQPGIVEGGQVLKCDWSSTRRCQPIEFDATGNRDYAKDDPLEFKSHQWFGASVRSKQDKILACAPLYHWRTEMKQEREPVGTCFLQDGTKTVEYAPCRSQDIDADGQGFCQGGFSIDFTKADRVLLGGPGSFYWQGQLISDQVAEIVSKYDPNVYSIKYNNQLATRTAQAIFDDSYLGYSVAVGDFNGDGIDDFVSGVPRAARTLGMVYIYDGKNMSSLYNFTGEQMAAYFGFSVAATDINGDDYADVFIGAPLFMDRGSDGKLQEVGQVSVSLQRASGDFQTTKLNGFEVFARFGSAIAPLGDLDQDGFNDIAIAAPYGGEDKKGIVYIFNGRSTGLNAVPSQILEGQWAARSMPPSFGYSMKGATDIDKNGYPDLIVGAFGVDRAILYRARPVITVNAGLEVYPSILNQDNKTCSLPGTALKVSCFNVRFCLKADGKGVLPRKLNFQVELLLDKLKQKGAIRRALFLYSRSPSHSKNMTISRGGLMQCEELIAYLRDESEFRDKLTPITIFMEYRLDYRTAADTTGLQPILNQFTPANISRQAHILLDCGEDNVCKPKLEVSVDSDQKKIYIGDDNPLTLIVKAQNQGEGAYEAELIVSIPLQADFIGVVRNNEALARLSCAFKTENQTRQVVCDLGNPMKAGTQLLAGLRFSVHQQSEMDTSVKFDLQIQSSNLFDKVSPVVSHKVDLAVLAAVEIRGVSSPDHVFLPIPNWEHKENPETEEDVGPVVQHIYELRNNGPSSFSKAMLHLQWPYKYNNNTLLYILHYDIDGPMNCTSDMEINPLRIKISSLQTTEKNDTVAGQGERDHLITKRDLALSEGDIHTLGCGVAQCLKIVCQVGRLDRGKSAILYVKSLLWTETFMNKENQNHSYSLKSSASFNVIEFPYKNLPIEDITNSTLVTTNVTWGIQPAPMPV
T1 chain 2: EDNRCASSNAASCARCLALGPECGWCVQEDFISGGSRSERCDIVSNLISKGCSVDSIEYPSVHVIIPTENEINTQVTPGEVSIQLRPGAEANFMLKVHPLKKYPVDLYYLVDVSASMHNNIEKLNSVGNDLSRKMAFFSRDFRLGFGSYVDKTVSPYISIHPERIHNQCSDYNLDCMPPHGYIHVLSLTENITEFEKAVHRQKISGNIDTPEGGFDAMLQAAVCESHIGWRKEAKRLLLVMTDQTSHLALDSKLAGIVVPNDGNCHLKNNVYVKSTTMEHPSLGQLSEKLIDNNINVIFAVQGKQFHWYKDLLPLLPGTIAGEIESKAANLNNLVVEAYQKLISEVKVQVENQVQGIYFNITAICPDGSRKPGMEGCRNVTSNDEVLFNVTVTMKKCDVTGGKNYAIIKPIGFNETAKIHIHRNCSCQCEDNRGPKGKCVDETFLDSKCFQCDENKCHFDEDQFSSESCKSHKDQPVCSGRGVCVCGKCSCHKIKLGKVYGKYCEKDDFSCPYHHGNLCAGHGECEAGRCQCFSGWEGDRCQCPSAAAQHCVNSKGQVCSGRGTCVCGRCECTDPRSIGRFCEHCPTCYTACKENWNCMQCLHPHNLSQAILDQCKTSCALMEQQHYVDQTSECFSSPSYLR
assay_remarks: competition, hLAP1
parameter_measured: IC50 (nM)
Give bare numbers, in nM.

Kindly indicate its recorded IC50. Item: B8_BP_dslf (avb8_3) (designed binder) TKCVVRFNFRGDMAVYALKAVKDHLKKEGPHWNITTHNDDEVYLVVRGIHESDAKRIAKWVESTIPGISVETQCD 2.68

Values from patent US20260297135
